# experiment: Capsule perfume leakage in heavy-duty liquid (HDL) detergent, headspace SPME GC/MS
# Format: physicochemical
# run-parameters: PRM of Perfume 1 out of Example 5-1 capsules (silica shell)
Label true (1) when Leakage (as %) after 1 week at 35° C. >= 30%; otherwise false (0).

Does CCC(C)CCCC(C)(C)O (stereo not drawn) [Tetrahydro myrcenol] have a reported Leakage (as %) after 1 week at 35° C. of at least 30%?
false (0)

Hi, just wondering whether CCC(C)(O)CCCC(C)C (stereo not drawn) [Tetrahydro linalool] shows Leakage (as %) after 1 week at 35° C. of 30% or higher.
false (0)

Evaluate CC1=CC(C)C(C=O)CC1 (stereo not drawn) : Leakage (as %) after 1 week at 35° C. at minimum 30%?
true (1)

Threshold query (Leakage (as %) after 1 week at 35° C. >= 30%) on CC(=O)OC1CCCCC1C(C)(C)C (stereo not drawn) [(2-tert-butylcyclohexyl) acetate]
true (1)

Is Leakage (as %) after 1 week at 35° C. at least 30%? Consider CC(=O)O[C@@H]1C[C@H]2CC[C@]1(C)C2(C)C (racemic) [iso-Bornyl acetate]
true (1)

Determine whether this compound has Leakage (as %) after 1 week at 35° C. no lower than 30%: CC(=O)OC1CCC(C(C)(C)C)CC1 (stereo not drawn) [(4-tert-butylcyclohexyl) acetate]
false (0)

Confirm if Leakage (as %) after 1 week at 35° C. reported for the compound CCOC(=O)C(C)CC (stereo not drawn) [Ethyl 2-methyl butyrate] is 30% or above.
true (1)

I'd appreciate it if you could say whether CC(=O)OC1CC2CC1C1CC=CC21 (stereo not drawn) [Verdyl acetate] has Leakage (as %) after 1 week at 35° C. at least equal to 30%.
false (0)

Hello, I need to know if "CC12CCC(CC1)C(C)(C)O2" has measured Leakage (as %) after 1 week at 35° C. not below 30%. Thanks!
false (0)

----------
# experiment: Capsule perfume leakage in liquid fabric enhancer (LFE), headspace SPME GC/MS
# Assay type: physicochemical
# run-parameters: PRM of Perfume 1 out of Example 4-1 capsules (silica shell); LFE Composition 1; 0.25 wt % perfume
quantity-kind: Leakage (as %) after 1 week at 35° C.
# output: numeric value plus its unit

Using the record for CC(=O)OC1CC2CC1C1CC=CC21 (stereo not drawn) [Verdyl acetate] , report its Leakage (as %) after 1 week at 35° C..
5%

Requested field: Leakage (as %) after 1 week at 35° C.. Item: CCC(C)CCCC(C)(C)O (stereo not drawn) [Tetrahydro myrcenol]
8%

Reported Leakage (as %) after 1 week at 35° C. for CC12CCC(CC1)C(C)(C)O2 [Eucalyptol] : what is it?
7%

Returns the measured Leakage (as %) after 1 week at 35° C. for the input molecule. Input: CC(=O)OC1CCCCC1C(C)(C)C (stereo not drawn) [(2-tert-butylcyclohexyl) acetate]
10%

Item under review: CCC(C)(O)CCCC(C)C (stereo not drawn) [Tetrahydro linalool] . Reported Leakage (as %) after 1 week at 35° C.?
8%

State the recorded Leakage (as %) after 1 week at 35° C. for this entry: CC(=O)O[C@@H]1C[C@H]2CC[C@]1(C)C2(C)C (racemic) [iso-Bornyl acetate]
8%

Entry under review: CCOC(=O)C(C)CC (stereo not drawn) [Ethyl 2-methyl butyrate] . Reported Leakage (as %) after 1 week at 35° C.?
4%

Which value of Leakage (as %) after 1 week at 35° C. has been reported for CC1=CC(C)C(C=O)CC1 (stereo not drawn) in the records?
7%

Fill blank: measured Leakage (as %) after 1 week at 35° C. of the molecule CC(=O)OC1CCC(C(C)(C)C)CC1 (stereo not drawn) [(4-tert-butylcyclohexyl) acetate] is ____.
6%
